system: DU-145 prostate; assay: NCI-60 one-dose screen, 48 h; details: 10 µM unless noted
About 83,000 compounds went through this panel and 20% of them were active in at least one assay; those are over-represented in the sample as a whole. Activity calls are given as the source filed them. Rule for the calls: active = growth percent below 10; inactive = the rest.
Bench note: report the call from active, inactive

>  <cpd-smiles>
CC(=O)OC[C@]12CC[C@@H](C(=O)CBr)[C@@H]1[C@H]1CC[C@@H]3[C@@]4(C)CC[C@H](OC(C)=O)C(C)(C)[C@@H]4CC[C@@]3(C)[C@]1(C)CC2

>  <target-of-assay>
DU-145 prostate

>  <group-label>
inactive

$$$$

Which outcome did this test record for the compound "COc1cc2c(=O)n(CCN)c3c4cc5c(cc4ccc3c2cc1OC)OCO5" ?
active

// repeat for "CCOC(=O)[C@@H](C)C[C@H](Cc1ccccc1)NC(=O)c1csc([C@@H](C[C@H](C(C)C)N(C)C(=O)[C@@H](NC(=O)[C@H]2C[C@H](O[Si](C)(C)C(C)(C)C)CCN2C)C(C)C)OC(C)=O)n1" and report
active

// repeat for "Cc1cc(Cl)nc(N(CCNc2ccnc3cc(Cl)ccc23)Cc2ccccn2)n1" and report
inactive

// repeat for "CC(C)c1ccc(Nc2ccc3c(OCCCN4CCN(C)CC4)cccc3n2)cc1" and report
inactive

// repeat for "N/C(=N\C(N)=N\c1nc2ccccc2s1)c1ccnc(Br)c1" and report
inactive

* * *

tested on: NCI-H322M lung; assay: NCI-60 one-dose screen, 48 h; conditions: 10 µM unless noted
About 83,000 compounds went through this panel and 20% of them were active in at least one assay; those are over-represented in the sample as a whole. Active and inactive are the calls of the source. Rule for the calls: active = growth percent below 10; inactive = the rest.
Bench note: report the call from class 1 (active), class 0 (inactive)

>  <compound>
COc1ccccc1/C=C1\Oc2cc(OCCN3CCCC3)ccc2C1=O

>  <group-label>
class 0

$$$$
>  <compound>
COc1cc2c(=O)n(CCN(C)C)c3c4cc5c(cc4ccc3c2cc1OC)OCO5

>  <group-label>
class 1

$$$$
>  <compound>
CCc1c(Cl)nc(N)nc1Nc1ccc(C)c(C)c1

>  <group-label>
class 0

$$$$
>  <compound>
NS(=O)(=O)c1ccc(CCN2C(=O)C=CC2=O)cc1

>  <group-label>
class 0

$$$$

Which outcome did this test record for the compound "COc1cc(/C(C)=C(\c2ccc(Cl)cc2)c2ccc(OCCN(C)C)cc2)ccc1F" ?
class 0

// repeat for "CCN(c1ccccc1)S(=O)(=O)c1cc([N+](=O)[O-])ccc1Cl" and report
class 0

// repeat for "Cc1ncc(C(=O)Nc2ccc(CN3CCN(C)CC3)c(C(F)(F)F)c2)cc1C#Cc1cnc(N)cc1C#N" and report
class 0

* * *

test system: M14 melanoma; assay: NCI-60 one-dose screen, 48 h (100 = growth as untreated, 0 = no growth, -100 = all killed); conditions: 10 µM unless noted
This is part of a sample that, as a whole, favours compounds with a hit. Of some 83,000 tested, about 20% had one in any assay.
quantity-name: growth (%)
Give bare numbers, in %.

Here's what some known entries look like.
>  <compound>
Cn1cc(-c2nc(-c3c[nH]c4c(Cl)nccc34)cs2)c2cc(F)ccc21

>  <measured-number>
99.9

$$$$
>  <compound>
c1ccc(-c2cn3c(ccc4ccccc43)n2)cc1

>  <measured-number>
32.2

$$$$
>  <compound>
CN1CCN(c2ccc(NC3=C(Cl)C(=O)c4ncccc4C3=O)cc2C(F)(F)F)CC1

>  <measured-number>
39.8

$$$$
>  <compound>
CCN1C(=O)N(CC)C2Nn3c(s/c(=C\c4ccc(OC)cc4)c3=O)=NC21 (stereo not drawn)

>  <measured-number>
39.8

$$$$
>  <compound>
COc1ccc(/C=C2\Oc3cc(OCCCCCN4CCCCC4)ccc3C2=O)cc1OC

>  <measured-number>
89.1

$$$$
>  <compound>
Nc1c(C(=O)Nc2cccc3cnccc23)sc2nc3c(cc12)C(=O)CCC3

>  <measured-number>
74.6

$$$$
>  <compound>
CC(C)N1C(=O)S/C(=C2/SC(=O)N(C(C)C)C2=O)C1=O

>  <measured-number>
93

$$$$
>  <compound>
COc1cc(C2=C(c3cn(C)c4ccccc34)COC2=O)cc(OC)c1OC

>  <measured-number>
-13.9

$$$$

Batch of 7 compounds: report growth for each.
1. COc1cc2oc(-c3cccc(C(=O)Nc4ccc(Cl)cc4)c3)cc(=O)c2c(O)c1OC
2. CC(C)c1ccc(Nc2ccc3c(OCCCN4CCN(C)CC4)cccc3n2)cc1
3. O=C1Nc2cc(-c3ccc(NC(=O)c4ccccc4)cc3)ccc2/C1=C/c1ccc[nH]1
4. CN1[C@@H]2CC[C@H]1/C(=C\c1ccccc1)C(=O)/C2=C/c1ccccc1
5. O=C(N/N=C/c1ccc(Oc2ccccc2)cc1)c1cnn2c1NC(c1ccccc1)C2 (stereo not drawn)
6. CCOC(=O)Oc1c(OC)cc(C(=O)c2ccc(OC)c(OC(=O)CCl)c2OC)cc1OC
7. CCCOC(=O)N[C@H]1CCc2cc(OC)c(OC)c(OC)c2-c2ccc(SC)c(=O)cc21

1: 69.8; 2: -67.6; 3: 105; 4: 43.4; 5: 46.2; 6: -15; 7: 6.23

Batch of 7 compounds: report growth for each.
1. CCN1Cc2nc3sc(C)c(C)c3c(=O)n2C=C1C
2. COc1cc2nc(-c3ccc(Cl)cc3)cc(OCCCN3CCCCC3)c2cc1OC
3. N#Cc1c(-c2cccc([N+](=O)[O-])c2)nc(SCC(=O)c2ccc(Cl)cc2)[nH]c1=O
4. NC(=NCc1ccccc1)C(N=Nc1ccccc1)C(=O)NCc1ccccc1 (stereo not drawn)
5. CCNC(=O)Oc1ccc(/C(=C(\C)c2ccccc2)c2ccc(OCCCN(C)C)cc2)cc1
6. O=C1c2cccc3c(-c4ccc5c(c4)ncn5C4CCCCC4)ccc(c23)C(=O)N1c1nc2ccccc2s1
7. Cc1ccc(-c2nc3ccccn3c2/C=C2/C(=O)Nc3cc(Cl)ccc32)cc1

[27.5, -28.2, 100, 82.9, 19.7, 93.8, 80.4]

Batch of 5 compounds: report growth for each.
1. COc1ccc(/C=C/c2nc(Nc3ccc(S(=O)(=O)Nc4cc(C)on4)cc3)c3ccccc3n2)cc1
2. N#Cc1cc(-c2nc3ccccc3s2)c(=O)n(NS(=O)(=O)c2ccccc2)c1N
3. CCCCCCCCOc1ccc(/C=N/Nc2cc(C)nc3ccc(Br)cc23)cc1
4. CCCCCC(=O)Oc1ccc(/C(=C(\C)c2ccccc2)c2ccc(OCCN3CCCCC3)cc2)cc1
5. Cc1cccc(-c2cn3ccnc3c(-c3ccc4ncn(Cc5ccccc5)c4c3)n2)c1

1: 39.9; 2: 107; 3: 53.6; 4: 65.9; 5: 102

For "O=C1Nc2cc(Cl)ccc2/C1=C\c1c(-c2ccc(F)cc2)nc2ccccn12" , what is its reported growth?
-10.8
